Assay: protein stability index of a GFP-peptide fusion (GPS, HEK-293T) (PSI 1-6); higher = more stable;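 also: 24-mer peptide tiles fused after GFP, lentivirally expressed, FACS-sorted into six equal bins by GFP/DsRed ratio, decoded by Illumina sequencing, PSI is the read-weighted mean bin number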
Details: treatment: MLN4924 1 uM, 8 h; c terminus: a fixed tail appended
measurement-kind: protein stability index

# sequence-code, protein stability index
measured = [
    ("GNGKNLVDFTFVENVVHGHILAAE [NSDHL]", 2.91),
    ("QGQPAMEGHCVIQVDVGDVNDNAP [PCDHGC5]", 4.78),
    ("TLLLQGHHDKVQSLCYLQLTRQLV [WDFY1]", 2.76),
    ("CAFSRTLPWSSVLRVWDMFFCEGV [TBC1D10A]", 2.94),
    ("DSDNSGGGGGGGGGGGGGGGTSSN [ANKRD17]", 5.58),
]

# protein stability index of SIPRHFALSGKYSREFFNRRGELR [SRPK2] = 2.8

# protein stability index of RKGCLRFQLPERGSRLCLYEDGTE [DFFB] = 3.47

# protein stability index of TLHPDASANFHSLDDIYYFGGQNA [FUT8] = 3.27

# protein stability index of IQLKSVADGQESTPPTPAPTSGIV [WASL] = 4.84

# protein stability index of ECLKRQGQREPGSLSRNNSFRRNV [FBXO34] = 4.22

# protein stability index of SPADYLRFQDLVLRMLEYEPAARI [DYRK1B] = 2.43

# protein stability index of SLEESVGKPLYLIFRNLCQMQEDN [INTS3] = 2.46

# protein stability index of SVFKKGRRRVPVRNLGKVVHYAKV [PLEKHN1] = 2.37

# protein stability index of AGLLPPVPAQKFSALTFLRVDQDK [SMOC2] = 3.3

# protein stability index of LGGFSHWGRLTSYSGGGYYLDLPG [PKD2L1] = 2.74

# protein stability index of TEISFILGQEFDEVTADDRKVKST [FABP4] = 4.43

# protein stability index of KGTILYLQKDEYRPDKALSEGDLK [PSD2] = 4.04

# protein stability index of LGSGQFAIVRKCRQKGTGKEYAAK [DAPK3] = 3.48

====

Assay: protein stability index of a GFP-peptide fusion (GPS, HEK-293T) (PSI 1-6); higher = more stable
Conditions: treatment: DMSO; c terminus: a fixed tail appended
measurement-kind: protein stability index
Enter a number only.

# sequence-code, protein stability index
data = [
    ("GEEQVELSTIEELIKDAIVSTQPA [C2CD2L]", 4.69),
]

Now take the following sequence into account.
# protein stability index of TFFEVSPLCNFNVIESFTELSRIV [RAB40C] = 2.46

====

Recorded protein stability index values for a group of sequences are listed next.
Assay: protein stability index of a GFP-peptide fusion (GPS, HEK-293T) (PSI 1-6); higher = more stable
Settings: treatment: DMSO; c terminus: native
Enter a number only.

Take a look at these entries with their results.
# sequence-code, protein stability index
rows = [
    ("PFEPQALGLSPSWRLTGFSGMKG [SEPHS2]", 2.51),
    ("KISGGPHISYPPLHEWVLREGEE [MAGEA3]", 2.92),
    ("RGRHEQSPTSRPRKVSSLPPRSC [C22orf15]", 3.06),
]

Now take the following sequence into account.
# protein stability index of STTDLRGTQFDYERGKGESTEDR [ZSWIM9] = 5.28
